Kindly find below log10(Ki) information for Coagulation factor X (Homo sapiens) taken from the literature.
# values: log10(Ki), units nM

Data request, read-out log10(Ki), for CN(C)C(=O)c1cccc(Oc2cc(C(=O)O)cc(Oc3cc(C(=N)N)ccc3O)n2)c1
0.49

Would you mind doing CNC(=O)[C@]1(C)C[C@@H](C(=O)NCc2ccc(C(=N)N)cc2)n2c1c(Cl)nc(NC1CCC1)c2=O as well?
3.04

Now consider CN(C)Cc1nccn1-c1ccc2c(c1)CCN2C(=O)c1cc(C(N)=O)nn1-c1ccc2onc(N)c2c1 .
0.34

Entry to check: Cc1cccc2c1cc(C(=O)NCC1CCC(C(=N)N)CC1)n2Cc1cccc(C(=N)N)c1 (stereo not drawn)
1.65

Now try COC(=O)[C@H](Cc1cccc(C(=N)N)c1)[C@@H](Cc1ccccc1)NC(=O)c1ccc(-c2ccccc2)cc1 .
1.04

Moving on to C[C@@H]1CN2CC(=O)Nc3ccc(cc3)C[C@@H](C(=O)NCc3ccc(C(=N)N)cc3)NC(=O)[C@H](NS(=O)(=O)Cc3ccccc3)Cc3ccc(cc3)NC(=O)CN1C[C@@H]2C
4.15

Same read-out for N=C(N)c1ccc(O)c(CCCNC(=O)c2cc3ccc(Cl)cc3s2)c1 ?
2.26

And the next one, CCOC(=O)N1CCN(C(=O)[C@H](Cc2cccc(C(=N)N)c2)NS(=O)(=O)c2cccc(NC(=O)CCN)c2)CC1 ?
4.41

Next: Nc1cc(C2=NOC(Cn3cccn3)(C(=O)Nc3ccc(-c4ccccc4S(N)(=O)=O)cn3)C2)ccc1Cl (single isomer, unassigned; (+))
3.04

====

The compounds below each have a reported pKi tested on Coagulation factor X (Homo sapiens); the values come from various publications.
Lab note — pKi values are minus log10 of concentrations in M.

Lab note: need pKi for Cc1cc2nc([C@@H](CNC(=O)c3c(C)cc(-n4cnnc4)cc3Cl)c3ccccc3)[nH]c2cc1C on Coagulation factor X (Homo sapiens), anyone have it?
6.71

Continue with COc1ccc(-n2nc(C(F)(F)F)c3c2C(=O)N(c2ccc(C4(CN5CCC(O)CC5)CC4)cc2)CC3)cc1
9.85

Same again, this time with COc1ccc(-n2nc(C(F)(F)F)c3c2C(=O)N(c2ccc(C4(C#N)CC4)cc2)CC3)cc1
8.74

Then what about the compound Nc1ccc2[nH]c(-c3cc(CC(=O)O)cc(-c4cccc([N+](=O)[O-])c4)c3O)cc2n1 ?
5.46

Continue with COc1ccc(-n2nc(C(N)=O)c3c2C(=O)N(C2CCN(c4ccccc4CN(C)S(C)(=O)=O)CC2)CC3)cc1
7.09

# iterate: Cc1cc(C(=O)Nc2ccc(-c3ccccc3S(N)(=O)=O)cc2)n(-c2cc3ccccc3cc2F)n1
8.24

Also, CCC(C)c1nc2ccc(OC3CCN(C(C)=N)CC3)cc2n1Cc1ccc2ccc(C(=N)N)cc2c1 (stereo not drawn) please.
9.92

====

Reported pKi against Coagulation factor X (Homo sapiens, UniProt P00742), gathered from multiple publications, appears below.
pKi: −log10 of the molar value.

Using the record for NC[C@H]1CC[C@H](C(=O)N[C@@H](Cc2ccccc2)c2cc(-c3ccc4[nH]nc(O)c4c3)ccn2)CC1 , report its pKi.
< 5.05

Queued: COc1ccccc1-n1nc(C)cc1C(=O)Nc1ccc(-c2ccccc2S(N)(=O)=O)cc1
< 4.52

Also, CC(=O)N[C@H](Cc1ccccc1)C(=O)N1CCC[C@H]1C(=O)N[C@@H](CCCNc1ncccn1)B1O[C@@H]2CC3CC(C3(C)C)[C@]2(C)O1 (stereo partly drawn) please.
< 5.22

====

Hi, quick share: literature Ki data for UniProt:P00742, several sources combined.
Kindly answer with a numeric value in nM, unit omitted.

What Ki value was documented for this compound, CN(C)Cc1ccccc1-c1ccc(N2CC=Cc3c(C(F)(F)F)nn(-c4ccc5onc(N)c5c4)c3C2=O)c(F)c1 ?
0.6

Note, next up: N=C(N)c1cccc(C[C@H](NS(=O)(=O)c2cccc(NC(=O)CCN)c2)C(=O)N2CCCC[C@H]2C(=O)O)c1
30000

Entry N=C(N)c1ccc2[nH]cc([C@@H](Cc3ccccc3)C(=O)Nc3ccc(-n4cnc5ccccc54)cc3F)c2c1 please
1.3

Check CN(C)S(=O)(=O)c1ccccc1-c1ccc(NC(=O)Cc2c[nH]c3ccc(C(=N)N)cc23)cc1 too.
7

How about this compound: CN(C)C(=O)c1cccc(Oc2nc(Oc3cc(C(=N)N)ccc3O)c(F)c(N(C)CC(=O)O)c2F)c1
0.41

====

Compiled Ki measurements on Coagulation factor X (Homo sapiens) taken from the literature.

# query: Ki | item NCc1ccc(CNC(=O)[C@@H]2Cc3ccc(cc3)NC(=O)CCN3CCN(CCC(=O)Nc4ccc(cc4)C[C@@H](NS(=O)(=O)c4ccccc4)C(=O)N2)CC3)cc1.O=C(O)C(F)(F)F.O=C(O)C(F)(F)F.O=C(O)C(F)(F)F | system: Coagulation factor X (Homo sapiens)
> 100 µM

Proceed to Cc1cc(C(=O)Nc2ccc(-c3ccccc3C(F)(F)F)cc2)n(-c2cccc(C(=N)N)c2)n1
4e-05 µM

Follow-up item: N=C(N)c1cccc(CN2CC[C@H](NS(=O)(=O)c3ccc(Cc4ccccc4)cc3)C2=O)c1
1.1 µM

Try the compound FC(F)(CNc1nccc2oc(Cc3ccccc3-n3cncn3)nc12)c1ccccn1
47 µM

Let us now turn to N=C(N)c1cccc(Cn2c(C(=O)NCc3cccc(C(N)=O)c3)cc3ccccc32)c1
0.24 µM

Try this compound next: N=C(N)c1cccc(Cn2c(C(=O)NCc3ccnc4ccccc34)cc3c(O)cccc32)c1
0.3 µM

// next record CS(=O)(=O)c1ccccc1-c1ccc2c(c1)C(=O)CCN2C(=O)c1cc(C(F)(F)F)nn1-c1ccc2onc(N)c2c1
0.5 µM

What about CC(=O)Cc1cccc(Oc2nc(Oc3cccc(C(=N)N)c3)c(F)c(C)c2F)c1 ?
1.4 µM

Item: N=C(N)c1ccc(CC(=O)C(=O)O)c(OCCNC(=O)C2CCN(c3ccncc3)CC2)c1
0.021 µM

How about this compound: Cc1cc(C(=O)Nc2ccc(-c3ccccc3CN(C)C)cc2F)n(-c2cc3ccccc3cc2S(C)(=O)=O)n1
0.0024 µM

One more compound: COc1ccc2cc(S(=O)(=O)NN(Cc3cccc(C(=N)NO)c3)C(=O)N3CCCCC3C)ccc2c1 (configuration not stated)
111 µM

Subsequent entry: N/C(=N\O)c1ccc(CNC(=O)CNC(=O)[C@@H](CO)NS(=O)(=O)Cc2ccccc2)cc1
> 1000 µM

====

Literature survey of pKi (system: Coagulation factor X (Homo sapiens, UniProt P00742)).
pKi: −log10 of the molar value.

Given the compound CCOC(=O)c1cc(Oc2cccc(C(=N)N)c2)nc(Oc2cccc(C(=N)N)c2)c1 , what is its reported pKi?
7.47

Moving on to the next compound: C[C@@]1(CO)C[C@@H](C(=O)NCc2ccc(C(=N)N)cc2)n2c1c(Cl)nc(NC1CCC1)c2=O
< 4.82

Let us now turn to CN1C(=O)C(OCc2ccc(C(=N)N)cc2)Oc2cc(C(=O)N[C@@H](CC(=O)O)c3ccccc3)ccc21 (some centres undefined)
< 3.70

Check CCOC(=O)C1CCCN(c2nc(Oc3cccc(C(=N)N)c3)c(F)c(C)c2F)C1 (centres undefined) too.
< 5.30

====

Coagulation factor X (Homo sapiens, UniProt P00742) Ki, compiled from various sources.

I am curious: what Ki value has been reported for CCOc1cc(C(Nc2ccc3c(N)nccc3c2)C(=O)NS(=O)(=O)c2cccc(C(N)=O)c2)ccc1OC(C)C (stereo not drawn) ?
> 8 µM

How about this compound: CC1(C)[C@@H]2C[C@H]3OB([C@H](CCCCN)NC(=O)Cn4nc(CC#N)nc4CCc4ccccc4)O[C@@]3(C)[C@H]1C2
> 6 µM

Then what about the compound NC[C@H]1CC[C@H](C(=O)N[C@@H](Cc2ccccc2)c2nc(-c3cccc(C(N)=O)c3)c[nH]2)CC1 ?
> 8.18 µM

====

Recorded pKi for compounds tested on Coagulation factor X (Homo sapiens, UniProt P00742), drawn from a number of studies.
pKi: −log10 of the molar value.

I have this compound here, N#Cc1ccc(NC(=O)C(Cc2ccccc2)c2csc3ccc(C(=N)N)cc23)cc1 (centres undefined) , and I need its recorded pKi.
< 5.10

Could you do the same for CC(=O)N[C@H](Cc1ccccc1)C(=O)N1CCC[C@H]1C(=O)N[C@@H](CCCn1ccnc1N)B1O[C@@H]2CC3CC(C3(C)C)[C@]2(C)O1 (some centres undefined) , please?
< 5.22

CC(NC(=O)CNC(=O)Nc1ccc(C(=N)N)cc1)c1ccc(C(F)(F)F)cc1C(F)(F)F (centres undefined) ?
< 5.00

Now the compound Cc1nc(Cc2ccccc2)n(CC(=O)N[C@@H](CCCCN)B2O[C@@H]3C[C@@H]4C[C@@H](C4(C)C)[C@]3(C)O2)n1
< 5.22
